molecular target: CaBzz1-D1; assay: SPOT peptide array binding signal intensity (averaged, normalized) (arbitrary units (background-subtracted, floor 0; scale differs between SH3 domains)); higher = stronger binding of the SH3 domain to the peptide
Classify as follows. Reported SPOT peptide array binding signal intensity greater than or equal to 200: Condition met. Reported SPOT peptide array binding signal intensity below: Condition not met.

Q: hey, is SPOT peptide array binding signal intensity for this one >= 200? DTIDNVKSKIQDKEG
Ans: Condition not met

Q: hey, is SPOT peptide array binding signal intensity for this one >= 200? QLLNPNRRAPRRPLS
Ans: Condition met

Q: hey, is SPOT peptide array binding signal intensity for this one >= 200? QFDLKMPSKPIHNLK
Ans: Condition not met

Q: hey, is SPOT peptide array binding signal intensity for this one >= 200? AAAPKHAPPPVPNET
Ans: Condition met

Q: hey, is SPOT peptide array binding signal intensity for this one >= 200? MFLISPPASPPPEFD
Ans: Condition not met

Q: hey, is SPOT peptide array binding signal intensity for this one >= 200? GKFIPSRPAPKPPSS
Ans: Condition met

Q: hey, is SPOT peptide array binding signal intensity for this one >= 200? DAPASKPSVPPRNYF
Ans: Condition not met
